biological target: VEGFR2 (Homo sapiens, UniProt P35968); construct: purchased Upstate; assay: VEGFR2 in vitro kinase inhibitory activity assay; assay type: biochemical; conditions: read-out: VEGFR2 IC50(μM) or % I
Sequence (P35968 20-1356): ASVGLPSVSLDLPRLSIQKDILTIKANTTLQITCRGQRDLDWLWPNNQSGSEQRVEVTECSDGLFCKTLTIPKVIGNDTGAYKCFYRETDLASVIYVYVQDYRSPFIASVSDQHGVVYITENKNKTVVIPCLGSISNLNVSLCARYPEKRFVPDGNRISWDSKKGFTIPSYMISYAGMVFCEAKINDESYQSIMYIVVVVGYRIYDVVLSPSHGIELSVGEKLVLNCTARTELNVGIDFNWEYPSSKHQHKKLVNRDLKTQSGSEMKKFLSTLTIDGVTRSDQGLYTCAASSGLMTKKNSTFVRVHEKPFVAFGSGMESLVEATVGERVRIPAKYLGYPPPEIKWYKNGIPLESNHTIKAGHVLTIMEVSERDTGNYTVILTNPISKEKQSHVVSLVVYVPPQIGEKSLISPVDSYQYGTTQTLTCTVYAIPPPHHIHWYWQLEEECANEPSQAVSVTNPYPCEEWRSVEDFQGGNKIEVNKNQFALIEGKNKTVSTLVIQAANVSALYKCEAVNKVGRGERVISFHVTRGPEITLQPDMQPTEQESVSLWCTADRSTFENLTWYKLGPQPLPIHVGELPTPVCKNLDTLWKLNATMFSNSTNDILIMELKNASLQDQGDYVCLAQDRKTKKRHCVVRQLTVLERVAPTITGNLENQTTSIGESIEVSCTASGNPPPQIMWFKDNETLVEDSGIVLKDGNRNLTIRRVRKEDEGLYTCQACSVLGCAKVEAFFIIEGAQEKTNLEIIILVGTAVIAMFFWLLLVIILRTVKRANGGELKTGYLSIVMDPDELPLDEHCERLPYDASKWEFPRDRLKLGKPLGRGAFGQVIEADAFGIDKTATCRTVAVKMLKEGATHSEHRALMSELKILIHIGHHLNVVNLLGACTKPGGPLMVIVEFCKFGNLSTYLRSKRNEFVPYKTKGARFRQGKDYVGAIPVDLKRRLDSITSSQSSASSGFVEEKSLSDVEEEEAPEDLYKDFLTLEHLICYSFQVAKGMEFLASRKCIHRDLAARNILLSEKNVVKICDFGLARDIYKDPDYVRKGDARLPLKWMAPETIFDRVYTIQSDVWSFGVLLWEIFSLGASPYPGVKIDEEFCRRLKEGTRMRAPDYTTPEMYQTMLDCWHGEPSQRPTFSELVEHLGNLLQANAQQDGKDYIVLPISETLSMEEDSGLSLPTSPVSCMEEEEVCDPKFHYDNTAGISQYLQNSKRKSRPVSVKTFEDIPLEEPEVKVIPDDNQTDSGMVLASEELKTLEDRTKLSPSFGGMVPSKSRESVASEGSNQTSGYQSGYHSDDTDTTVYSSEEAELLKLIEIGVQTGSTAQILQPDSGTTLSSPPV
Endpoint Label: IC50 (µM)
State the answer as a number, implicitly in µM.

Below, each entry is followed by its recorded IC50 result.
[[record]]
entry_smiles = "COCc1cc(NC(=O)NCC(F)(F)F)cc(-c2cnc3cc(-c4ccnc(C(F)(F)F)n4)ccn23)c1"
system_tested = "VEGFR2 (Homo sapiens, UniProt P35968)"
val = 0.057

[[record]]
entry_smiles = "CC(C)Oc1cc(NC(=O)NCC(F)(F)F)cc(-c2cnc3cc(-c4nnco4)ccn23)c1"
system_tested = "VEGFR2 (Homo sapiens, UniProt P35968)"
val = 1.1

[[record]]
entry_smiles = "Cc1nc(-c2ccn3c(-c4cc(NC(=O)NCC(F)(F)F)cc(OC(C)C)c4)cnc3c2)ccc1F"
system_tested = "VEGFR2 (Homo sapiens, UniProt P35968)"
val = 0.48

[[record]]
entry_smiles = "CC(C)Oc1cc(NC(=O)NCC(F)(F)F)cc(-c2cnc3cc(OCCO)ccn23)c1"
system_tested = "VEGFR2 (Homo sapiens, UniProt P35968)"
val = 0.51


**Q:** Please supply the value of reported IC50 for the item CCOc1cc(NC(=O)NCC(F)(F)F)cc(-c2cnc3cc(-c4ccnc(C(F)(F)F)n4)ccn23)c1
**A:** 0.4

**Q:** Given Cc1nnc(-c2ccn3c(-c4cc(NC(=O)NCC(F)(F)F)cc(NC(C)C)c4)cnc3c2)o1 , respond with its IC50.
**A:** 5.8

**Q:** Tell me IC50 reported for CCNC(=O)Nc1cc(OC(C)C)cc(-c2cnc3cc(-c4nnc(C)s4)ccn23)c1
**A:** 0.087

---

# key: entry, value: GI50
target: Ba/F3-TEL-FGFR3 cells (Homo sapiens, UniProt P22607); construct: fused on or other part: TEL (ETV6) N-terminal oligomerising part fused to the FGFR3 kinase part; P41212 (Transcription factor ETV6); assay: Ba/F3-TEL-FGFR3 cell proliferation assay (Alamar Blue); assay type: cell-based, murine; details: 72 hours; read-out: BaF3-TEL-FGFR3 prolif
Sequence (P22607 whole entry, change not shown, the tested form may be a part): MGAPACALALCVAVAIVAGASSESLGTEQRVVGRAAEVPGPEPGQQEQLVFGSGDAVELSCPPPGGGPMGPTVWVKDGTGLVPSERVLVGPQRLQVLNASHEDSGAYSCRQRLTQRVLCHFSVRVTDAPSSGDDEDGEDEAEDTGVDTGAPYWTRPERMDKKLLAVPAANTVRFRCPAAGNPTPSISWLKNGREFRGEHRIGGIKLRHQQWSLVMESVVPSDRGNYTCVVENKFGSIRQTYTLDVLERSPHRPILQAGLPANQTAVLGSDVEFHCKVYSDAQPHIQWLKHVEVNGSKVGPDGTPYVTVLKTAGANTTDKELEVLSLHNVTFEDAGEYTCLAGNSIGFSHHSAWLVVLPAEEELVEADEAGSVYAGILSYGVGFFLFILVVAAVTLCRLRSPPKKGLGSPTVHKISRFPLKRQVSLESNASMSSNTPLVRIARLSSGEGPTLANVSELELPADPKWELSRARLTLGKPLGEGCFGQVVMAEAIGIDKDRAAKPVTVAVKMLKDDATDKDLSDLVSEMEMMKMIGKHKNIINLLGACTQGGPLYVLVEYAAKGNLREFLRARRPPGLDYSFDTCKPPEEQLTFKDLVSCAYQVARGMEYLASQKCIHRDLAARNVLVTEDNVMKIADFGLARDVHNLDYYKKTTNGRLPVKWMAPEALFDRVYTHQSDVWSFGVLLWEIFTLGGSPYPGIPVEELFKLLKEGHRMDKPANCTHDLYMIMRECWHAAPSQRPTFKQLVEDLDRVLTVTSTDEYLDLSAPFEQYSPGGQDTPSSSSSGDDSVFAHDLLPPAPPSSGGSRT
Report the figure in nM without appending any unit label.

Worked examples, 6 compounds total:
[[record]]
entry_smiles = "CCNC(=O)Nc1cc(OC(C)C)cc(-c2cnc3cc(-c4nncs4)ccn23)c1"
system_tested = "Ba/F3-TEL-FGFR3 cells (Homo sapiens, UniProt P22607)"
endpoint_label = "GI50"
unit_descriptor = "nM"
val = 230

[[record]]
entry_smiles = "CC(C)Oc1cc(NC(=O)NCC(F)(F)F)cc(-c2cnc3cc(-c4nncs4)ccn23)c1.Cl"
system_tested = "Ba/F3-TEL-FGFR3 cells (Homo sapiens, UniProt P22607)"
endpoint_label = "GI50"
unit_descriptor = "nM"
val = 42

[[record]]
entry_smiles = "COCc1cc(NC(=O)NCC(F)(F)F)cc(-c2cnc3cc(-c4ccnc(C(F)(F)F)n4)ccn23)c1"
system_tested = "Ba/F3-TEL-FGFR3 cells (Homo sapiens, UniProt P22607)"
endpoint_label = "GI50"
unit_descriptor = "nM"
val = 240

[[record]]
entry_smiles = "Cc1nc(-c2ccn3c(-c4cc(NC(=O)NCC(F)(F)F)cc(OC(C)C)c4)cnc3c2)ccc1F"
system_tested = "Ba/F3-TEL-FGFR3 cells (Homo sapiens, UniProt P22607)"
endpoint_label = "GI50"
unit_descriptor = "nM"
val = 330

[[record]]
entry_smiles = "Cc1cn(-c2ccn3c(-c4cc(NC(=O)NCC(F)(F)F)cc(OC(C)C)c4)cnc3c2)cn1"
system_tested = "Ba/F3-TEL-FGFR3 cells (Homo sapiens, UniProt P22607)"
endpoint_label = "GI50"
unit_descriptor = "nM"
val = 100

[[record]]
entry_smiles = "CCOc1cc(NC(=O)NCC(F)(F)F)cc(-c2cnc3cc(-c4ccnc(C(F)(F)F)n4)ccn23)c1"
system_tested = "Ba/F3-TEL-FGFR3 cells (Homo sapiens, UniProt P22607)"
endpoint_label = "GI50"
unit_descriptor = "nM"
val = 470


Switching to the query record.
**Q:** In one line, give reported GI50 of the entry CC(C)Oc1cc(NC(=O)NCC(F)(F)F)cc(-c2cnc3cc(-c4ncccn4)ccn23)c1 .
**A:** 170
